- testSystem: HCV NS3/4A protease complex (BMS strain, genotype 1a) (Hepatitis C virus genotype 1a, UniProt P27958, C1454S)
- Construct: DNA encoding the recombinant HCV NS3/4A protease complex (amino acids 1027 to 1711) for these strains; inferred from the pET21b vector and Ni-NTA purification; made in house; host or cells: Escherichia coli BL21 (DE3), pET21b
- Sequence (P27958 1658-1714, looked up, stated change not applied): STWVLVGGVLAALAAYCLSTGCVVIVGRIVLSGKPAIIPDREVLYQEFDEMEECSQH
- Sequence (P27958 1027-1657, looked up, stated change not applied): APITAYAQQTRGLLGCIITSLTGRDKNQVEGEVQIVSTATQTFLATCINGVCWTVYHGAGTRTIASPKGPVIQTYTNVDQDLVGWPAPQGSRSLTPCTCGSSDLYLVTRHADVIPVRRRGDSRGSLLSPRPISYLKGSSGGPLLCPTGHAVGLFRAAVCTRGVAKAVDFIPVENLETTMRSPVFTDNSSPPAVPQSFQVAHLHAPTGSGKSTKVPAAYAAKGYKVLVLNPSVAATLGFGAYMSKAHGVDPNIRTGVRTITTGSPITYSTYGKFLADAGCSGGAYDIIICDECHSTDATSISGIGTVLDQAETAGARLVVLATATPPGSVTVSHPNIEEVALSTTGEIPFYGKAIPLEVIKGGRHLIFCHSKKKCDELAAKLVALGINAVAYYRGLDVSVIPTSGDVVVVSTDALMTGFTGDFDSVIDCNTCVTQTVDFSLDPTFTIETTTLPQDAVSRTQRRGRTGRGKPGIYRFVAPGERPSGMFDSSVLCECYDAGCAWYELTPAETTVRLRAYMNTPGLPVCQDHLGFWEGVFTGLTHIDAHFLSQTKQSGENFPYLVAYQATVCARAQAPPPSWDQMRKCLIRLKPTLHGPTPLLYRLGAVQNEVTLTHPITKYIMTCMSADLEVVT
- assay: Recombinant HCV NS3/4A protease complex FRET peptide assay, BMS strain
- Assay type: biochemical
- studyConditions: IC50 range, NS3/4A BMS Strain
Item-by-item account of IC50

| molecule | IC50 |
| --- | --- |
| C=C[C@@H]1C[C@]1(NC(=O)[C@@H]1C[C@@H](Oc2ccnc3cc(Cl)ccc23)CN1C(=O)[C@@H](NC(=O)OC1CCCC1)C(C)(C)C)C(=O)NS(=O)(=O)C1(CCCC)CC1 | < 50 nM |

We next turn to a different molecule, shown below.
# lookup: IC50 of C=CC1C[C@]1(NC(=O)[C@@H]1C[C@@H](Oc2cc(-c3ccccc3)nc3cc(OC)ccc23)CN1C(=O)[C@@H](NC(=O)OC(C)(C)C)C(C)(C)C)C(=O)NS(=O)(=O)C1(Cc2ccccc2)CC1 (stereo in doubt) < 50 nM
